target: human NTCP (Homo sapiens, UniProt Q14973); experiment: Screening taurocholate uptake assay (96-well, [14C]taurocholate, 10 µM drug); settings: ranking score beside the functional and binding assay B-scores of the screen
Counter-ions that a name gives are not always drawn.
Would you kindly list Ranking score for each of these compounds?

IN: # return recorded Ranking score for entry CNCCC=C1c2ccccc2C=Cc2ccccc21
OUT: 807.009

IN: Indicate its recorded Ranking score; the compound in question is CCN(CC)CC#CCOC(=O)C(O)(c1ccccc1)C1CCCCC1 (centres unmarked) [Oxybutynin chloride]
OUT: 808.614

IN: Name the recorded Ranking score of the compound listed here: O=c1n(CCCN2CCN(c3cccc(Cl)c3)CC2)nc2ccccn12 [Trazodone hydrochloride]
OUT: 707.824

IN: Look up Ranking score of CN1CCC2(C)c3cc(O)ccc3N(C)C12.O=C(O)/C=C/C(=O)O (single isomer, unassigned; (-)) [(-)-Eseroline fumarate salt] and report it.
OUT: 803.481

IN: Consider the compound CCCCC(=O)O[C@H]1CC[C@H]2[C@@H]3CCc4cc(O)ccc4[C@H]3CC[C@]12C [Estradiol Valerate] . State its measured Ranking score.
OUT: 776.511

IN: Could you please provide reported Ranking score for CCCN1C[C@H](CSC)C[C@@H]2c3cccc4[nH]cc(c34)C[C@H]21 [Pergolide mesylate] ? Thanks!
OUT: 708.625

IN: Please give the documented Ranking score of COc1ccc2c3c1O[C@H]1C[C@@H](O)C=C[C@@]31CCN(C)C2 [Galanthamine hydrobromide]
OUT: 808.114

IN: Quick one: give measured Ranking score for O=C(O)c1cccnc1
OUT: 716.877

IN: Return reported Ranking score. Input compound: CCCc1cc(=O)[nH]c(=S)[nH]1
OUT: 823.744

IN: Name the recorded Ranking score of the compound listed here: CC(=O)O[C@H]1C[C@@H]2CC[C@@H]3[C@H](CC[C@@]4(C)[C@H]3C[C@H]([N+]3(C)CCCCC3)[C@@H]4OC(C)=O)[C@@]2(C)C[C@@H]1[N+]1(C)CCCCC1 [Pancuronium bromide]
OUT: 767.5

IN: For COc1ccccc1O , write its Ranking score.
OUT: 782.911

IN: Report Ranking score, nothing else, for this compound: Cc1ncc(C[n+]2csc(CCO)c2C)c(N)n1 [Thiamine hydrochloride]
OUT: 830.8

IN: Report Ranking score, nothing else, for this compound: Cc1ccc(O)c([C@H](CCN(C(C)C)C(C)C)c2ccccc2)c1 [Tolterodine tartrate]
OUT: 673.446

IN: // Input: CC[C@]12CCCN3CCc4c(n(c5ccccc45)[C@@](O)(C(=O)OC)C1)[C@@H]32 . Output its Ranking score only.
OUT: 659.7

IN: Look up and state reported Ranking score for O=C(CCCN1CCC(O)(c2ccc(Br)cc2)CC1)c1ccc(F)cc1
OUT: 757.533

IN: State its Ranking score for this compound: CN1CCN(CCCN2c3ccccc3Sc3ccc(C(F)(F)F)cc32)CC1 [Trifluoperazine dihydrochloride]
OUT: 714.92

IN: Give the reported value of Ranking score for this record: Nc1cc(C(Cl)=C(Cl)Cl)c(S(N)(=O)=O)cc1S(N)(=O)=O
OUT: 659.111

IN: For the compound CCN(CC)Cc1cc(Nc2ccnc3cc(Cl)ccc23)ccc1O.Cl.Cl.O.O [Amodiaquin dihydrochloride dihydrate] , give its measured Ranking score value.
OUT: 658.143

IN: Please list Ranking score recorded for the compound COc1cc(OC)c(C(=O)CCCN2CCCC2)c(OC)c1.Cl [Buflomedil hydrochloride]
OUT: 823.499

IN: Please look at this compound and report its Ranking score: CN(Cc1cnc2nc(N)nc(N)c2n1)c1ccc(C(=O)N[C@@H](CCC(=O)O)C(=O)O)cc1 [Methotrexate]
OUT: 661.494

* * *

Biological target: UniProtKB Q14973
Sequence (Q14973 1-349): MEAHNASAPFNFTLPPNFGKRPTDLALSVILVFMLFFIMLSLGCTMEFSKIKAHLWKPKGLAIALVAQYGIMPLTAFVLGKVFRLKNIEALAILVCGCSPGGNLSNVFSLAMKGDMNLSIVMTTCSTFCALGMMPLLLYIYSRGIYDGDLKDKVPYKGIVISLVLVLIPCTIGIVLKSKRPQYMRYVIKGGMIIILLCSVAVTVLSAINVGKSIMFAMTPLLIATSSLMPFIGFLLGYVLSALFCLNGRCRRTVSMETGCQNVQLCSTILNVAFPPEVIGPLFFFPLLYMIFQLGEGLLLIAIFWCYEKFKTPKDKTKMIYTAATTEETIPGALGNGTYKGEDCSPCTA
Test: Screening fluorescent competitive Myrcludex B-FITC binding assay (96-well, 10 µM drug)
Details: Prestwick library screen, 10 µM drug; B-score of Myrcludex B-FITC binding
Counter-ions that a name gives are not always drawn.
Property: B-score binding assay
The answer should be written as a number, with no unit following it.

IN: // fetch B-score binding assay given entry C=CCSCC1Nc2cc(Cl)c(S(N)(=O)=O)cc2S(=O)(=O)N1 (stereo not drawn) [Althiazide]
OUT: 0.861

IN: Quote B-score binding assay reported for CCCCC1C(=O)N(c2ccccc2)N(c2ccc(O)cc2)C1=O (stereo not drawn) please.
OUT: 0.23

IN: Indicate the recorded B-score binding assay value for this molecule: CN(C)[C@@H]1C(O)=C(C(N)=O)C(=O)[C@@]2(O)C(O)=C3C(=O)c4c(O)cccc4[C@@](C)(O)[C@H]3[C@H](O)[C@@H]12 [Oxytetracycline dihydrate]
OUT: 1.019

IN: Input CO[C@@]1(NC(=O)Cc2cccs2)C(=O)N2C(C(=O)O)=C(COC(N)=O)CS[C@@H]21 [Cefoxitin sodium salt] , output reported B-score binding assay.
OUT: 0.041

IN: Give a short answer stating reported B-score binding assay for O=c1[nH]c(=O)n([C@H]2C[C@H](O)[C@@H](CO)O2)cc1C(F)(F)F .
OUT: 2.847

IN: Fill in reported B-score binding assay for this entry: Cc1scc2c1N(C(=O)CN1CCN(C)CC1)c1ccccc1NC2=O [Telenzepine dihydrochloride]
OUT: 1.535

IN: Consider the molecule CC1CCc2cc(F)cc3c(=O)c(C(=O)O)cn1c23 (stereo not drawn) . State its measured B-score binding assay.
OUT: -0.028

IN: Report B-score binding assay, nothing else, for this molecule: CN(CCCCCCCCCCN(C)C(=O)Oc1cccc([N+](C)(C)C)c1)C(=O)Oc1cccc([N+](C)(C)C)c1 [Demecarium bromide]
OUT: 0.623

IN: Annotate the molecule Cl.Nc1c(Br)cc(Br)cc1CNC1CCC(O)CC1 (stereo not drawn) [Ambroxol hydrochloride] with its measured B-score binding assay.
OUT: 1.513

* * *

For each record, write down the corresponding B-score functional assay.
target: human NTCP (Homo sapiens, UniProt Q14973); experiment: Screening taurocholate uptake assay (96-well, [14C]taurocholate, 10 µM drug); settings: screening taurocholate uptake, 10 µM drug
Structures can show the parent of a compound that is named as a salt.
Write the value as a bare number.

IN: Look up and report measured B-score functional assay (human NTCP (Homo sapiens, UniProt Q14973)) for the following compound: OCCN1CCN(CCCN2c3ccccc3Sc3ccc(C(F)(F)F)cc32)CC1 [Fluphenazine dihydrochloride]
OUT: -4.102

IN: Name the recorded B-score functional assay of CC(C)NCC(O)COc1ccc(COCCOC(C)C)cc1 (stereo not drawn) [Bisoprolol fumarate] , assay system human NTCP (Homo sapiens, UniProt Q14973).
OUT: 0.023

IN: Recall the reported B-score functional assay of CCN(CCCCOC(=O)c1ccc(OC)c(OC)c1)C(C)Cc1ccc(OC)cc1 (stereo not drawn) [Mebeverine hydrochloride] on human NTCP (Homo sapiens, UniProt Q14973) and write it down.
OUT: -0.512

IN: Please respond with reported B-score functional assay (system human NTCP (Homo sapiens, UniProt Q14973)) for Oc1ccc(C2CNCCc3c2cc(O)c(O)c3Cl)cc1 (stereo not drawn) [Fenoldopam] .
OUT: 0.056

IN: GET B-score functional assay where system = human NTCP (Homo sapiens, UniProt Q14973) and item = CNCC(O)c1ccc(O)cc1 (racemic) [(+,-)-Synephrine]
OUT: -0.397

IN: Specify B-score functional assay for Cc1ccc(S(=O)(=O)NC(=O)NN2CC3CCCC3C2)cc1 (stereo not drawn) [Gliclazide] , system human NTCP (Homo sapiens, UniProt Q14973).
OUT: -0.222

IN: For human NTCP (Homo sapiens, UniProt Q14973), give the measured B-score functional assay of the entry Oc1c(I)cc(Cl)c2cccnc12 [Clioquinol]
OUT: 0.225

IN: # lookup: human NTCP (Homo sapiens, UniProt Q14973) B-score functional assay, key = CCOC(=O)OC(C)OC(=O)[C@@H]1N2C(=O)[C@@H](NC(=O)[C@H](N)c3ccccc3)[C@H]2SC1(C)C (stereo partly drawn) [Bacampicillin hydrochloride]
OUT: -0.626

IN: Param request: B-score functional assay | system human NTCP (Homo sapiens, UniProt Q14973) | item COc1cc2nc(N3CCN(C(=O)C4CCCO4)CC3)nc(N)c2cc1OC (stereo not drawn) [Terazosin hydrochloride]
OUT: -0.092
